- tested system: T1, human GARP (glycoprotein A repetitions predominant, LRRC32) on the cell surface (human, UniProt Q14392 20-662)
- T1 construct: whole, on cells; also called hGARP; free GARP
- T1 sequence (looked up): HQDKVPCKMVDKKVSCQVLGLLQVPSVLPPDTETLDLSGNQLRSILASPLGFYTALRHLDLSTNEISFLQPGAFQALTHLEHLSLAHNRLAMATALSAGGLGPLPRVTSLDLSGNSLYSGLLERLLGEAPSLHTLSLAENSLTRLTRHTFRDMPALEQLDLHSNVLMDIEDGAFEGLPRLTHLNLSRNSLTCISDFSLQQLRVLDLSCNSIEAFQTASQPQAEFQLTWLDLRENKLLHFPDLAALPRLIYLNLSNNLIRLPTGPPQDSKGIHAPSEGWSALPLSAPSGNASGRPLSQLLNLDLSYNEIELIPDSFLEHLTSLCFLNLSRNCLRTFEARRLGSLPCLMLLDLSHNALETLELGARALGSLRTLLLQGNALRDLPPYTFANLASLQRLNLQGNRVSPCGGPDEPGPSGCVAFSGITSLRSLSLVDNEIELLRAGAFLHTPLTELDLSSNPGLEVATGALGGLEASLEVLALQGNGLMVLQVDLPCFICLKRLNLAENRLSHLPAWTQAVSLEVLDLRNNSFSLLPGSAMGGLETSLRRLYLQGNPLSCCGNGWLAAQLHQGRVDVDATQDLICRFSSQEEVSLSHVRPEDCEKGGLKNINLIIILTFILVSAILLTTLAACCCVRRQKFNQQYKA
- test details: FACS, Ag(+) cells, supernatant heated 70 C 5 min, 0.2 ug/ml
MFI for assorted binders
Please reply with the bare figure in MFI and do not write the unit itself.

binder	unit string	MFI
huPIIO-1VH4VL1 (antibody, V domains shown, Humanized IgG from Expi293, tested as culture supernatant; also called H4L1; HuPIIO-1VH4/L1) VH: DVQLQESGPGLVKPSQTLSLTCTVSGYSITSDYAWNWIRQFPGNKLEWMGYISYSGSTSYTPSLKSRITISRDTSKNHFFLQLSSVTAEDTATYYCAKSGGDYYGSSSYWYFDVWGQGTTVTVSS VL: DIVLTQSPSSLAVSLGERATMNCKSSQSLLNSRSQKNYLAWYQQKPGQPPKLLIYGASTRGSGVPDRFSGSGSGTDFTLTISSLQAEDVAVYYCQNDHSYPFTFGQGTKLEIKR	MFI	24.2
huPIIO-1VH4VL3 (antibody, V domains shown, Humanized IgG from Expi293, tested as culture supernatant; also called H4L3; HuPIIO-1VH4/L3) VH: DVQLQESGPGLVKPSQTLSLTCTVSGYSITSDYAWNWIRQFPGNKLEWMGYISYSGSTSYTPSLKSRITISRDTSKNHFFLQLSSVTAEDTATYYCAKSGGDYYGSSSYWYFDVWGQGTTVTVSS VL: DIVLTQSPSSLAVSAGERVTMSCKSSQSLLNSRSQKNYLAWYQQKPGQPPKLLIYGASTRGSGVPDRFSGSGSGTDFTLTISSVQAEDVAVYYCQNDHSYPFTFGSGTKLEIKR	MFI	24.2

Entry huPIIO-1VH3VL1 (antibody, V domains shown, Humanized IgG from Expi293, tested as culture supernatant; also called H3L1; HuPIIO-1VH3/L1) VH: DVQLQESGPGLVKPSQTLSLTCTVSGYSITSDYAWNWIRQFPGNKLEWMGYISYSGSTSYTPSLKSRITISRDTSKNHFFLKLSSVTAADTATYYCAKSGGDYYGSSSYWYFDVWGQGTTVTVSS VL: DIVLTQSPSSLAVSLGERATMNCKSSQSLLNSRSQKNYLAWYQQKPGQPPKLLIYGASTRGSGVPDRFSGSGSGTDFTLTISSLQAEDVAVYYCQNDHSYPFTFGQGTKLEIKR ; MFI = 23.6
